# assay-target: Rep WT (Escherichia coli, UniProt P09980 1-673)
# test-method-notes: SPR; no nucleotide, 5 mM Mg2+; 20 nM Rep; kon 1.03e6 M-1 s-1, koff 2.15e-4 s-1; SPR: 25 mM Tris-HCl pH 7.6, 50 mM NaCl, 5 mM MgCl2, 0.25 mM DTT, 0.2 mM EDTA, 0.005% P20, 20 C; single-molecule: 25 mM Tris-HCl pH 7.9, 10 mM Mg acetate, 50 mM
# run-parameters: protein: recombinant; chain copies: 2; single strand
quantity-kind: pKd
Notebook: values listed as pKd are -log10 of the concentration (mol/L).

Q: So what does the record say about pKd for TTTTTTTTTTTTTTTTTTTTTTTTTTTTTTTTTTT (ssDNA, 3'-biotin) [3'-bio-dT35] ?
Ans: 9.70
